Assay: activity coefficient (dimensionless); of the first substance listed, at infinite dilution; xn = mol fraction of the nth substance listed
Conditions: 298.15 K; Liquid; Chromatography; x1 = 0
Binary classification by activity coefficient, with 20 as an inclusive lower bound for Y; all other cases are N.

| Compound | Discrete label |
| --- | --- |
| C#CCCC [1-pentyne] + CCCC[N+]1(C)CCCC1.O=S(=O)([O-])C(F)(F)F | N |
| C#CCCCCC [1-heptyne] + CCCC[N+]1(C)CCCC1.O=S(=O)([O-])C(F)(F)F | N |
| C#CCCCC [1-hexyne] + CCCC[N+]1(C)CCCC1.O=S(=O)([O-])C(F)(F)F | N |
| COC(C)(C)C [2-methoxy-2-methylpropane] + CCCC[N+]1(C)CCCC1.O=S(=O)([O-])C(F)(F)F | N |
| CCCCC [pentane] + CCCC[N+]1(C)CCCC1.O=S(=O)([O-])C(F)(F)F | Y |
| C1CCCC1 [cyclopentane] + CCCC[N+]1(C)CCCC1.O=S(=O)([O-])C(F)(F)F | N |
| Cc1ccccc1 [toluene] + CCCC[N+]1(C)CCCC1.O=S(=O)([O-])C(F)(F)F | N |
| c1ccccc1 [benzene] + CCCC[N+]1(C)CCCC1.O=S(=O)([O-])C(F)(F)F | N |
| CCCCCCCCCC [decane] + CCCC[N+]1(C)CCCC1.O=S(=O)([O-])C(F)(F)F | Y |
| C1CCOC1 [tetrahydrofuran] + CCCC[N+]1(C)CCCC1.O=S(=O)([O-])C(F)(F)F | N |
| CCc1ccccc1 [ethylbenzene] + CCCC[N+]1(C)CCCC1.O=S(=O)([O-])C(F)(F)F | N |
| C=CCCC [1-pentene] + CCCC[N+]1(C)CCCC1.O=S(=O)([O-])C(F)(F)F | N |
| C=CCCCCCC [oct-1-ene] + CCCC[N+]1(C)CCCC1.O=S(=O)([O-])C(F)(F)F | Y |
| CO [methanol] + CCCC[N+]1(C)CCCC1.O=S(=O)([O-])C(F)(F)F | N |
| c1ccsc1 [thiophene] + CCCC[N+]1(C)CCCC1.O=S(=O)([O-])C(F)(F)F | N |
| CCCCCC [hexane] + CCCC[N+]1(C)CCCC1.O=S(=O)([O-])C(F)(F)F | Y |
| C#CCCCCCC [1-octyne] + CCCC[N+]1(C)CCCC1.O=S(=O)([O-])C(F)(F)F | N |
| CCCCCCCCC [nonane] + CCCC[N+]1(C)CCCC1.O=S(=O)([O-])C(F)(F)F | Y |
| C=CCCCC [hex-1-ene] + CCCC[N+]1(C)CCCC1.O=S(=O)([O-])C(F)(F)F | Y |
| C1CCCCCCC1 [cyclooctane] + CCCC[N+]1(C)CCCC1.O=S(=O)([O-])C(F)(F)F | Y |
| CCCCCCC [heptane] + CCCC[N+]1(C)CCCC1.O=S(=O)([O-])C(F)(F)F | Y |
| C1CCCCCC1 [cycloheptane] + CCCC[N+]1(C)CCCC1.O=S(=O)([O-])C(F)(F)F | Y |
| CCO [ethanol] + CCCC[N+]1(C)CCCC1.O=S(=O)([O-])C(F)(F)F | N |
| CCCCCCCC [octane] + CCCC[N+]1(C)CCCC1.O=S(=O)([O-])C(F)(F)F | Y |
| C=CCCCCC [1-heptene] + CCCC[N+]1(C)CCCC1.O=S(=O)([O-])C(F)(F)F | Y |
| C1CCCCC1 [cyclohexane] + CCCC[N+]1(C)CCCC1.O=S(=O)([O-])C(F)(F)F | Y |
